Measured percent inhibition of viability by item
- Tested on: normal primary NK cells, pool 2 (3 donors) (IL-2 2.5 ng/mL);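 also: normalised to DMSO-only wells as negative and benzethonium chloride as positive control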
- protocol.notes: percent inhibition of viability; higher = more inhibition
- settings: 72 h; 2500 nM
experimental.endpoint: percent inhibition of viability

compound="CCNC(=O)Nc1ccc(-c2nc3c(c(N4CCOC[C@@H]4C)n2)CCN(C2COC2)C3)cc1 [RG-7603] (max concentration tested 2500 nM)" result=13.1%
compound="CCn1nnc2c(N3CCOCC3)nc(-c3ccc(NC(=O)Nc4ccc(C(=O)N5CCN(C)CC5)cc4)cc3)nc21 [PKI-402] (max concentration tested 2500 nM)" result=38.4%
compound="COc1cc(C(=O)NC2CCN(C)CC2)c(F)cc1Nc1ncc2c(n1)N(C1CCCC1)CC(F)(F)C(=O)N2C [TAK-960] (max concentration tested 2500 nM)" result=13.6%
compound="CN1CCN(C2CCN(C(=O)Nc3cc(Oc4ccc(NC(=O)C5(C(=O)Nc6ccc(F)cc6)CC5)c(F)c4)ccn3)CC2)CC1 [Golvatinib] (max concentration tested 2500 nM)" result=3.25%

----------
- Test system: normal NK cells expanded with K562-aAPC
- protocol.notes: drug sensitivity score (DSS) (DSS units); higher = more sensitive; extreme values may be limits of the assay
- settings: 72 h; IL-2 2.5 ng/mL
Returns one of label 1 or label 0; label 1 when drug sensitivity score is >= 0.7.

molecule="Cc1c(Cn2c(C)nc3c(C(=O)O)cc(N4CCOCC4)cc32)cccc1C(F)(F)F (max concentration tested 10000 nM)" subject_of_test="normal NK cells expanded with K562-aAPC" cat="label 1"
molecule="CC(O)(CS(=O)(=O)c1ccc(F)cc1)C(=O)Nc1ccc(C#N)c(C(F)(F)F)c1 (stereo unspecified) [Bicalutamide] (max concentration tested 10000 nM)" subject_of_test="normal NK cells expanded with K562-aAPC" cat="label 1"
molecule="CC(C)(C#N)c1cc(Cn2cncn2)cc(C(C)(C)C#N)c1 [Anastrozole] (max concentration tested 10000 nM)" subject_of_test="normal NK cells expanded with K562-aAPC" cat="label 0"
molecule="CC(C)n1nc(-c2ccc3oc(N)nc3c2)c2c(N)ncnc21 [MLN-0128] (max concentration tested 1000 nM)" subject_of_test="normal NK cells expanded with K562-aAPC" cat="label 1"
molecule="O[C@H]1CC[C@H](Nc2ncc3nc(Nc4c(F)cc(F)cc4F)n([C@H]4CCOC4)c3n2)CC1 [Tanzisertib] (max concentration tested 10000 nM)" subject_of_test="normal NK cells expanded with K562-aAPC" cat="label 0"
molecule="CNC(=O)c1cc(Oc2ccc(NC(=O)Nc3ccc(Cl)c(C(F)(F)F)c3)cc2)ccn1 [Sorafenib] (max concentration tested 1000 nM)" subject_of_test="normal NK cells expanded with K562-aAPC" cat="label 0"

----------
- Tested on: normal NK cells expanded with K562-aAPC
- protocol.notes: percent inhibition of viability; higher = more inhibition
- settings: 72 h; IL-2 2.5 ng/mL; 1000 nM
experimental.endpoint: percent inhibition of viability

compound="C/C(=C\\c1csc(C)n1)[C@@H]1C[C@@H]2O[C@]2(C)CCC[C@H](C)[C@H](O)[C@@H](C)C(=O)C(C)(C)[C@@H](O)CC(=O)O1 [Patupilone] (max concentration tested 1000 nM)" result=55.8%
compound="Cc1c(C(=O)Nc2ccc(N3C[C@@H](C)O[C@@H](C)C3)nc2)cccc1-c1ccc(OC(F)(F)F)cc1 [Sonidegib] (max concentration tested 10000 nM)" result=6.62%
compound="COc1ccc(-c2cc3c(C)nc(N)nc3n([C@H]3CC[C@H](OCCO)CC3)c2=O)cn1 (max concentration tested 10000 nM)" result=42.7%
compound="Nc1cccc2c1C(=O)N(C1CCC(=O)NC1=O)C2=O (stereo not given) [Pomalidomide] (max concentration tested 10000 nM)" result=-11.8%
compound="CC(=O)[C@]1(O)Cc2c(O)c3c(c(O)c2[C@@H](O[C@H]2C[C@H](N)[C@H](O)[C@H](C)O2)C1)C(=O)c1ccccc1C3=O [Idarubicin] (max concentration tested 1000 nM)" result=101%
